IC50, γ-secretase (Homo sapiens (Human), UniProt P49768): measured values
OBSERVED_PROPERTY: IC50 (nM)

# count of solved cases: 5
>  <COMPOUND>
O=S(=O)(CC[C@@H]1OCC[C@@]2(S(=O)(=O)c3ccc(Cl)cc3)c3c(F)ccc(F)c3OC[C@@H]12)c1cnccn1 [Compound 25c]

>  <UNITS_OF_MEASURE>
nM

>  <RESULT_VALUE>
5.5

$$$$
>  <COMPOUND>
COc1ccc(S(=O)(=O)CC[C@@H]2OCC[C@@]3(S(=O)(=O)c4ccc(Cl)cc4)c4c(F)ccc(F)c4OC[C@@H]23)cn1 [Compound 25h]

>  <UNITS_OF_MEASURE>
nM

>  <RESULT_VALUE>
16.5

$$$$
>  <COMPOUND>
Nc1ncccc1S(=O)(=O)CC[C@@H]1OCC[C@@]2(S(=O)(=O)c3ccc(Cl)cc3)c3c(F)ccc(F)c3OC[C@@H]12 [Compound 27b]

>  <UNITS_OF_MEASURE>
nM

>  <RESULT_VALUE>
18

$$$$
>  <COMPOUND>
O=S(=O)(CC[C@@H]1OCC[C@@]2(S(=O)(=O)c3ccc(Cl)cc3)c3c(F)ccc(F)c3OC[C@@H]12)Cc1cccnc1

>  <UNITS_OF_MEASURE>
nM

>  <RESULT_VALUE>
6.6

$$$$
>  <COMPOUND>
O=S(=O)(CC[C@@H]1OCC[C@@]2(S(=O)(=O)c3ccc(Cl)cc3)c3c(F)ccc(F)c3OC[C@@H]12)c1ccncn1 [Compound 25f]

>  <UNITS_OF_MEASURE>
nM

>  <RESULT_VALUE>
2.9

$$$$

[I] O=S(=O)(CC[C@@H]1OCC[C@@]2(S(=O)(=O)c3ccc(Cl)cc3)c3c(F)ccc(F)c3OC[C@@H]12)Cc1ncon1
[II] O=c1ccc(S(=O)(=O)CC[C@@H]2OCC[C@@]3(S(=O)(=O)c4ccc(Cl)cc4)c4c(F)ccc(F)c4OC[C@@H]23)c[nH]1 [Compound 25a]
Which one would you say has the larger IC50 value: I , or II ? Provide the label of your selected option as the answer.
II

[A] O=S(=O)(CC[C@@H]1OCC[C@@]2(S(=O)(=O)c3ccc(Cl)cc3)c3c(F)ccc(F)c3OC[C@@H]12)c1cncnc1 [Compound 25g]
[B] O=S(=O)(CC[C@@H]1OCC[C@@]2(S(=O)(=O)c3ccc(Cl)cc3)c3c(F)ccc(F)c3OC[C@@H]12)Cc1ccccn1
Just tell me: smaller IC50 value, A or B ? Provide the label of your selected option as the answer.
B
(B: 1.9 nM, A: 12.9 nM)

[1] O=S(=O)(CC[C@@H]1OCC[C@@]2(S(=O)(=O)c3ccc(Cl)cc3)c3c(F)ccc(F)c3OC[C@@H]12)c1cccnn1 [Compound 25b]
[2] O=c1[nH]cccc1S(=O)(=O)CC[C@@H]1OCC[C@@]2(S(=O)(=O)c3ccc(Cl)cc3)c3c(F)ccc(F)c3OC[C@@H]12 [Compound 27a]
Which one would you say has the larger IC50 value: 1 , or 2 ? Provide the label of your selected option as the answer.
1
(1: 4.5 nM, 2: 2.8 nM)

[1] O=S(=O)(CC[C@@H]1OCC[C@@]2(S(=O)(=O)c3ccc(Cl)cc3)c3c(F)ccc(F)c3OC[C@@H]12)c1ncccn1 [Compound 25e]
[2] O=S(=O)(CC[C@@H]1OCC[C@@]2(S(=O)(=O)c3ccc(Cl)cc3)c3c(F)ccc(F)c3OC[C@@H]12)c1ccnnc1 [Compound 25d]
Which one would you say has the larger IC50 value: 1 , or 2 ? Provide the label of your selected option as the answer.
2
(2: 10.2 nM, 1: 6.4 nM)
